tested on: oxotremorine tremor response; assay: Oxotremorine antagonism: affinity constant from shift of median effective tremor dose of oxotremorine (Dixon up-and-down method); type: in vivo, mice; details: AL-301 set equal to 1.0
MEASURE NAME: Ratio of affinity constant dosages (relative potency)

>  <COMPOUND>
CC(C#CCN1CCCC1)N1CCCC1=O (stereo not shown)

>  <VALUE>
17.0

$$$$
>  <COMPOUND>
CC(C#CCN1CCCCC1)N1CCCC1=O (stereo not shown)

>  <VALUE>
8.5

$$$$
>  <COMPOUND>
OC(CCN1CCCCC1)(c1ccccc1)C1CCCCC1 (stereo not shown) [Artane, reference compound]

>  <VALUE>
1.8

$$$$

// query Please tell me the measured Ratio of affinity constant dosages (relative potency) for CC(C#CCN1CCCCCC1)N1CCCC1=O (stereo not shown) ; system: oxotremorine tremor response.
// result 9.0
